assaySystem: recombinant USP30 (amino acids 57-517 of the human sequence) (Homo sapiens (Human), UniProt Q70CQ3)
Sequence (Q70CQ3 57-517): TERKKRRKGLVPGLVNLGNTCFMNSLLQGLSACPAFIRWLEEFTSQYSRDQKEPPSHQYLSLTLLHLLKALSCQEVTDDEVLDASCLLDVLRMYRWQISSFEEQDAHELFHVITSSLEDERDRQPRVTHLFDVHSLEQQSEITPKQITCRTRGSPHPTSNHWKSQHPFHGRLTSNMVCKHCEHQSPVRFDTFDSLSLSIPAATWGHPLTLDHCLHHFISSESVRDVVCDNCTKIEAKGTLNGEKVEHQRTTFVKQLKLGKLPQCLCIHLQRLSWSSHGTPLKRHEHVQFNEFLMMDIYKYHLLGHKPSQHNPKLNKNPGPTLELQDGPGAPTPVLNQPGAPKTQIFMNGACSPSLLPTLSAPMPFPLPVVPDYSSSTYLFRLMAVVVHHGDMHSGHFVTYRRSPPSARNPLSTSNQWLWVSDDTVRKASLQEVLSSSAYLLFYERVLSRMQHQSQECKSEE
testProtocol: In vitro USP30 biochemical assay (Ubiquitin-Rhodamine substrate)
runConditions: 1.5 nM recombinant USP30, 25 nM Ubiquitin-Rhodamine, fluorescence
Property: IC50; scope: individual compounds

O=C(N[C@@H](Cc1ccccc1)C(=O)Nc1ccc(S(=O)(=O)NCc2cnccn2)cc1)c1ccc(F)cc1 [Compound I-223]: 0.05 to 1 µM
CC(C)(C)NS(=O)(=O)c1ccc(NC(=O)[C@@H]2C[C@H](c3ccccc3)CN2C(=O)c2ccc(F)cc2)cc1 [Compound I-283]: 0.05 to 1 µM
CO[C@H]1C[C@@H](C(=O)Nc2ccc(S(=O)(=O)NC(C)(C)C)cc2)N(C(=O)c2ccc(F)cc2)C1 [Compound I-290]: 1 to 10 µM
CCN1CCC(C[C@H](NC(=O)c2ccc(F)cc2)C(=O)Nc2ccc(S(=O)(=O)NC(C)(C)CO)cc2)CC1 [Compound I-45]: 0.05 to 1 µM
O=C(N[C@@H](CC1CC1)C(=O)Nc1ccc(S(=O)(=O)NC2COC2)cc1)c1ccc(F)cc1 [Compound I-48]: 1 to 10 µM

Form: compound = CC(C)(C)NS(=O)(=O)c1ccc(NC(=O)[C@H](Cc2ccccc2)NC(=O)N2CC3(COC3)C2)cc1 [Compound I-179] ; IC50 = 1 to 10 µM

Form: compound = O=C(N[C@@H](Cc1ccccc1)C(=O)Nc1ccc(S(=O)(=O)NCc2ncccn2)cc1)c1ccc(F)cc1 [Compound I-228] ; IC50 = 0.05 to 1 µM

Form: compound = COc1cc(NC(=O)[C@H](CC2CCOCC2)NC(=O)c2ccc(F)cc2)cnc1S(=O)(=O)NC1CCCC1 [Compound I-82] ; IC50 = 0.05 to 1 µM

Form: compound = O=C(N[C@@H](Cc1ccccc1)C(=O)Nc1ccc(S(=O)(=O)NC2(CF)CC2)cc1)c1ccc(F)cc1 [Compound I-200] ; IC50 = 0.05 to 1 µM

Form: compound = CC(C)(C)NS(=O)(=O)c1ccc(NC(=O)[C@H](Cc2ccccc2)NC(=O)c2ccc3cn[nH]c3c2)cc1 [Compound I-190] ; IC50 = 1 to 10 µM

Form: compound = CN1CCC(C[C@H](NC(=O)c2ccc(F)cc2)C(=O)Nc2ccc(S(=O)(=O)NC(C)(C)CO)cc2)CC1 [Compound I-44] ; IC50 = 0.05 to 1 µM

Form: compound = CC(C)(C)NS(=O)(=O)c1ccc(NC(=O)[C@H](Cc2ccccc2)NC(=O)c2ccc3nc[nH]c3c2)cc1 [Compound I-194] ; IC50 = 1 to 10 µM

Form: compound = COCC[C@H](NC(=O)c1ccc(F)cc1)C(=O)Nc1ccc(S(=O)(=O)NC(C)(C)CO)cc1 [Compound I-26] ; IC50 = 0.05 to 1 µM

Form: compound = O=C(N[C@@H](CC1CCNCC1)C(=O)Nc1ccc(S(=O)(=O)NC2COC2)nc1)c1ccc(F)cc1 [Compound I-111] ; IC50 = 1 to 10 µM

Form: compound = CC(C)(C)NS(=O)(=O)c1ccc(NC(=O)[C@H](Cc2ccccc2)NC(=O)c2cncnc2)cc1 [Compound I-188] ; IC50 = 0.05 to 1 µM

Form: compound = C[C@@H](CO)NS(=O)(=O)c1ccc(NC(=O)[C@H](Cc2ccccc2)NC(=O)c2ccc(F)cc2)cc1 [Compound I-129] ; IC50 = 0.05 to 1 µM
